These entries and their values trace back to the supplement of paper PMC10567573.

The entries below come with measured protein stability index values attached.
B1: SMOC2 (parent)
chain: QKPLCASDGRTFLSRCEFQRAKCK

- Variants of: B1
- PROTOCOL_DESCRIPTION: protein stability index of a GFP-peptide fusion (GPS, HEK-293T) (PSI 1-6); higher = more stable;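 also: lentivirally expressed fusions sorted by FACS into six bins by GFP to DsRed ratio, PSI derived from sequencing read proportions per bin multiplied by bin number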
- COND: c terminus: a fixed tail appended
Form: value (number only, do not type unit).

For orientation, consider the following solved cases.
{"columns": ["MUTATION_ID", "protein stability index"],
 "data": [
  ["F18C", 3.56],
  ["K22L", 2.11],
  ["F18I", 4.24],
  ["R10M", 2.72],
  ["A21H", 2.7]
]}

Return reported protein stability index; argument: Q1S
2.68

Return reported protein stability index; argument: C16K
3.9

Return reported protein stability index; argument: K2M
3.87

Return reported protein stability index; argument: K22T
2.71

Return reported protein stability index; argument: K22C
2.72

Return reported protein stability index; argument: K2V
2.97
